The following compounds are listed with their measured pIC50 values.
# assayed.target: human IR (hIR) (Homo sapiens)
# Construct: containing amino acid residues 979-1382 of human IR; made in house; host or cells: Sf9 cells (baculovirus), same process as hIGF1R
# test.protocol: TR-FRET kinase assay of purified hIR
# Type: biochemical
# condition.info: activated hIR 0.5 nM, 10 μM ATP, values given as pIC50 category
pIC50: −log10 of the molar value.

Example entries begin here.
CNC(=O)c1c(F)cc(Cl)cc1Nc1nc(Nc2cc3c(cc2OC)CCN3C(=O)CN2CCCC2)nc2[nH]ccc12 : 9.00 to 9.60
CCCN1CCC=C(c2ccc(Nc3nc(Nc4ccc(F)cc4C(N)=O)c4cc[nH]c4n3)c(OC)c2)C1 : 9.00 to 9.60
COc1cc2c(cc1Nc1nc(Nc3cccc(F)c3C(N)=O)c3cc[nH]c3n1)CN(CCCN(C)C)CC2 : 8.40 to 8.90
CCC(C)N1CCc2cc(OC)c(Nc3nc(Nc4cccc(F)c4C(N)=O)c4cc[nH]c4n3)cc2C1 (stereo not shown) : 8.40 to 8.90
COc1cc(C2=CCCN(C(C)C)C2)ccc1Nc1nc(Nc2cc(F)c(F)cc2C(N)=O)c2cc[nH]c2n1 : 9.00 to 9.60

So for COc1cc(N2CCCN(C(C)C)CC2)ccc1Nc1nc(Nc2cccc(F)c2C(N)=O)c2cc[nH]c2n1 , the logged pIC50 turned out to be 6.80 to 8.30

So for CNC(=O)c1c(F)cccc1Nc1nc(Nc2cc3c(cc2OC)CCN3C(=O)CN(C)CCOC)nc2[nH]ccc12 , the logged pIC50 turned out to be 8.40 to 8.90

====

The following molecules are listed with their measured IC50 values.
# assayed.target: human IGF1R (hIGF1R) (Homo sapiens, UniProt P08069)
# Construct: containing amino acid residues 957-1367 of human IGF1R; made in house; host or cells: Sf9 cells (baculovirus)
# Sequence (P08069 957-1367): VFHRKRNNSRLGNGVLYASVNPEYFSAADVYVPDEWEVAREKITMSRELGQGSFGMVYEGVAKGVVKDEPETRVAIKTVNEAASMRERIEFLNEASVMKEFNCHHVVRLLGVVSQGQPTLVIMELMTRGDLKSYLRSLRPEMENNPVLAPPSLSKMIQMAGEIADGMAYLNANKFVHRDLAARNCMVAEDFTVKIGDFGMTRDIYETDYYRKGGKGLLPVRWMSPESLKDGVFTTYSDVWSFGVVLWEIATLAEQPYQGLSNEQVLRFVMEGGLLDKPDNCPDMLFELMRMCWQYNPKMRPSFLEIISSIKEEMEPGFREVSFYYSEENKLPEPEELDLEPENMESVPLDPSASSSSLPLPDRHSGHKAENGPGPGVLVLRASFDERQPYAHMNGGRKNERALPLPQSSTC
# test.protocol: TR-FRET kinase assay of purified hIGF1R
# Assay type: biochemical
# condition.info: activated hIGF1R 0.5 nM, 10 μM ATP, values given as pIC50 category, read-out: IGF-1R pIC50 (converted)

Example entries begin here.
CCN(CCO)CC(=O)N1CCc2cc(OC)c(Nc3nc(Nc4cccc(F)c4C(N)=O)c4cc[nH]c4n3)cc21 [Example 177] : 1.26 to 3.98 nM
CCCN1CCC=C(c2ccc(Nc3nc(Nc4ccc(OC)cc4C(N)=O)c4cc[nH]c4n3)c(OC)c2)C1 [Example 38] : 1.26 to 3.98 nM
CNC(=O)c1c(F)cccc1Nc1nc(Nc2cc(NC(=O)CN(C)C)ccc2OC)nc2[nH]ccc12 [Example 245] : 1.26 to 3.98 nM
CNC(=O)c1c(Nc2nc(Nc3cc4c(cc3OC)CCN4C(=O)CN(C)C)nc3[nH]ccc23)ccc(F)c1F [Example 160] : 1.26 to 3.98 nM
COc1cc(C2=CCCN(C(C)C)C2)ccc1Nc1nc(Nc2cc(F)c(F)cc2C(N)=O)c2cc[nH]c2n1 [Example 96] : 0.251 to 1 nM

So for CNC(=O)c1cc(F)ccc1Nc1nc(Nc2ccc(N3CCN(C(C)C)CC3)cc2OC)nc2[nH]ccc12 [Example 65] , the logged IC50 turned out to be 1.26 to 3.98 nM

So for COc1cc2c(cc1Nc1nc(Nc3cccc(F)c3C(N)=O)c3c(F)c[nH]c3n1)N(C(=O)CN(C)C)CC2 [Example 252] , the logged IC50 turned out to be 0.251 to 1 nM

====

The following molecules are listed with their measured pIC50 values.
# assayed.target: human IR (hIR) (Homo sapiens, UniProt P06213)
# Construct: containing amino acid residues 979-1382 of human IR
# Sequence (P06213 979-1382): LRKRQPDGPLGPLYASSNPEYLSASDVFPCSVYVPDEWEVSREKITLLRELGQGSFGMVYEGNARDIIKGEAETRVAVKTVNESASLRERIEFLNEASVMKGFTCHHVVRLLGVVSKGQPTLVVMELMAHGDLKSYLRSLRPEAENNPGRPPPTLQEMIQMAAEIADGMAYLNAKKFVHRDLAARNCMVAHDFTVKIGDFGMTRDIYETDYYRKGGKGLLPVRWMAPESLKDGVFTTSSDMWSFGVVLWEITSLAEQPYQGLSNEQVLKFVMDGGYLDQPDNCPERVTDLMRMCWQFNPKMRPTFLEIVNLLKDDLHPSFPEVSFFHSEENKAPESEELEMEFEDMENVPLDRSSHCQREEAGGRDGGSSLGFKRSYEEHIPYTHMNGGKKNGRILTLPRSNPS
# test.protocol: TR-FRET kinase assay of purified hIR
# condition.info: activated hIR 0.5 nM, 10 μM ATP, values given as pIC50 category
pIC50: −log10 of the molar value.

CNC(=O)c1c(F)cc(F)cc1Nc1nc(Nc2cc3c(cc2OC)CCCN3C(=O)CN(C)C)nc2[nH]ccc12 [Example 179] : 9.00 to 9.60
COc1cc2c(cc1Nc1nc(Nc3cc(F)cc(F)c3C(N)=O)c3cc[nH]c3n1)N(C(=O)CN1CCCC1)CCC2 [Example 219] : 9.00 to 9.60
Cc1ccc(NC(=O)CN(C)C)cc1Nc1nc(Nc2cc(F)ccc2C(N)=O)c2cc[nH]c2n1 [Example 85] : 9.00 to 9.60
Cc1ccc(Nc2nc(Nc3cc(NC(=O)CN(C)C)ccc3C)nc3[nH]ccc23)c(C(N)=O)c1 [Example 34] : 8.40 to 8.90
Cc1ccc(NC(=O)CN(C)C)cc1Nc1nc(Nc2ccccc2C(=O)NCc2ccc(F)cc2)c2cc[nH]c2n1 [Example 27] : 8.40 to 8.90
COc1cc2c(cc1Nc1nc(Nc3cccc(F)c3C(N)=O)c3cc[nH]c3n1)N(C(=O)CN(C)OC)CC2 [Example 144] : 6.80 to 8.30

# context switch: different molecule, same pIC50
So for COc1cc2c(cc1Nc1nc(Nc3ccc(F)c(F)c3C(=O)NC(C)C)c3cc[nH]c3n1)N(C(=O)CN(C)C)CCC2 [Example 164] , the logged pIC50 turned out to be 6.80 to 8.30

====

# assayed.target: human IR (hIR) (Homo sapiens, UniProt P06213)
# Construct: containing amino acid residues 979-1382 of human IR
# test.protocol: TR-FRET kinase assay of purified hIR
# condition.info: activated hIR 0.5 nM, 10 μM ATP, values given as pIC50 category
The following compounds are listed with their measured IC50 values.

Example entries begin here.
CNC(=O)c1c(F)cccc1Nc1nc(Nc2cc3c(cc2OC)C[C@H](C)N3C(=O)CN(C)C)nc2[nH]ccc12 : 1.26 to 3.98 nM
COc1cc2c(cc1Nc1nc(Nc3cccc(F)c3C(N)=O)c3cc[nH]c3n1)N(C(=O)CN(C)C)CCC2 : 0.251 to 1 nM
COc1ccc(NC(=O)CN(C)C)cc1Nc1nc(Nc2cccc(F)c2C(N)=O)c2cc[nH]c2n1 : 0.251 to 1 nM

So for CCC(C)N1CCc2cc(OC)c(Nc3nc(Nc4cccc(F)c4C(=O)NC)c4cc[nH]c4n3)cc2C1 (stereo not shown) , the logged IC50 turned out to be 1.26 to 3.98 nM

====

# assayed.target: NIH-3T3 cells overexpressing human IGF-1R (Homo sapiens, UniProt P08069)
# Sequence (P08069 31-1367): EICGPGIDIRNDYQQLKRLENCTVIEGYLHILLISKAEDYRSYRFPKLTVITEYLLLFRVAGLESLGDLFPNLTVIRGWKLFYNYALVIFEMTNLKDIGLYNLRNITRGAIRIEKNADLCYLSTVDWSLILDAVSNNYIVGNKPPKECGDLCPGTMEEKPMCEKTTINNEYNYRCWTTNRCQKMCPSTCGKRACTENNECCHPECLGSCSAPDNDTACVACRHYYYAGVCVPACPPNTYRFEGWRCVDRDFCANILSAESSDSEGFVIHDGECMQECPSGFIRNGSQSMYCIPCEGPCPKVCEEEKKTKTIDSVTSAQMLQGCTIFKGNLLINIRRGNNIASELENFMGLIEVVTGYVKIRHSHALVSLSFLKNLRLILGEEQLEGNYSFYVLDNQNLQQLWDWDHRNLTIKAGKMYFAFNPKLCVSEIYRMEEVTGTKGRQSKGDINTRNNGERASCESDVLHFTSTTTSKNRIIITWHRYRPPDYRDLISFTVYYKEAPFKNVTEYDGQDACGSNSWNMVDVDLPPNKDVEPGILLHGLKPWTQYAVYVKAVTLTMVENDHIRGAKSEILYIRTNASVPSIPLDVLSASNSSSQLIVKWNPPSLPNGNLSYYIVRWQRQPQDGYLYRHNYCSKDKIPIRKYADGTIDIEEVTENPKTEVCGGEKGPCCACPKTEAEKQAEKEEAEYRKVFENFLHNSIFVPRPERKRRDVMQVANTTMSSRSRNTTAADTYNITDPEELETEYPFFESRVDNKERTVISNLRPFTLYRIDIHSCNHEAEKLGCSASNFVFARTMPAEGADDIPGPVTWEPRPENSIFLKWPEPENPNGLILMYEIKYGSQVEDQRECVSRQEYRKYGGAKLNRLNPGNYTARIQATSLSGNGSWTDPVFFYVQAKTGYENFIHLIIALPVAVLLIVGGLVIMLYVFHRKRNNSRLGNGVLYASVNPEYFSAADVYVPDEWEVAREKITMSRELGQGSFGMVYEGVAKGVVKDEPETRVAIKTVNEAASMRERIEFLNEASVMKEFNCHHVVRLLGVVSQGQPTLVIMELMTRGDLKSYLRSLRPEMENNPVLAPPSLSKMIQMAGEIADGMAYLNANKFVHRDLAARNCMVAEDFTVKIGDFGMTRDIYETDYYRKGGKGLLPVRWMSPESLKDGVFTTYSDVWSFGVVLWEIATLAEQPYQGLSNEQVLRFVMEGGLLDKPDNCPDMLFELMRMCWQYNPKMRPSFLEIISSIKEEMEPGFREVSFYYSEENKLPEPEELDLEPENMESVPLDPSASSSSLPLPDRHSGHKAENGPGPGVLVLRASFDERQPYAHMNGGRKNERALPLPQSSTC
# test.protocol: IGF-1R cellular autophosphorylation (DELFIA)
property: IC50

Example entries begin here.
CCCN1CCC=C(c2ccc(Nc3nc(Nc4cc(F)ccc4C(=O)NCC(N)=O)c4cc[nH]c4n3)c(OC)c2)C1 [Example 67] : 100 to 500 nM
Cc1ccc(NC(=O)CN(C)C)cc1Nc1nc(Nc2ccccc2C(=O)NCCO)c2cc[nH]c2n1 [Example 26] : > 500 nM
CNC(=O)c1ccccc1Nc1nc(Nc2ccc(N3CCN(C(C)C)CC3)cc2OC)nc2[nH]ccc12 [Example 25] : 100 to 500 nM

The molecule CCCN1CCC=C(c2ccc(Nc3nc(Nc4cc(F)ccc4C(=O)N[C@@H](C)CC)c4cc[nH]c4n3)c(OC)c2)C1 [Example 87] , when measured on NIH-3T3 cells overexpressing human IGF-1R (Homo sapiens, UniProt P08069), yielded IC50 of > 500 nM

The molecule COc1cc(N2CCC(N3CCOCC3)CC2)ccc1Nc1nc(Nc2ccc(F)cc2C(N)=O)c2cc[nH]c2n1 [Example 59] , when measured on NIH-3T3 cells overexpressing human IGF-1R (Homo sapiens, UniProt P08069), yielded IC50 of < 100 nM

The molecule COc1cc(N2CCOC[C@@H]2C)ccc1Nc1nc(Nc2cc(F)ccc2C(N)=O)c2cc[nH]c2n1 [Example 84] , when measured on NIH-3T3 cells overexpressing human IGF-1R (Homo sapiens, UniProt P08069), yielded IC50 of < 100 nM

====

The following compounds are listed with their measured pIC50 values.
# assayed.target: NIH-3T3 cells overexpressing human IGF-1R (Homo sapiens)
# test.protocol: IGF-1R cellular autophosphorylation (DELFIA)
pIC50: −log10 of the molar value.

COc1cc2c(cc1Nc1nc(Nc3cccc(F)c3C(N)=O)c3cc[nH]c3n1)NCC2 : < 6.30
COc1cc(N2CCN(C(C)C)CC2)ccc1Nc1nc(Nc2cc(F)c(F)cc2C(N)=O)c2cc[nH]c2n1 : > 7.00
CCCN(C)CC(=O)N1CCc2cc(OC)c(Nc3nc(Nc4cccc(F)c4C(=O)NC)c4cc[nH]c4n3)cc21 : 6.30 to 7.00

So for COc1cc(N2CCC(N3CC[C@H](F)C3)CC2)ccc1Nc1nc(Nc2cc(F)ccc2C(N)=O)c2cc[nH]c2n1 , the logged pIC50 turned out to be > 7.00

So for COc1cc(N2CCN(C(C)C)CC2)ccc1Nc1nc(Nc2ccc(F)cc2C(N)=O)c2cc[nH]c2n1 , the logged pIC50 turned out to be > 7.00

So for COc1cc(C2=CCN(C(C)C)CC2)ccc1Nc1nc(Nc2cc(F)ccc2C(N)=O)c2cc[nH]c2n1 , the logged pIC50 turned out to be > 7.00

So for CCCN1CCCC(c2ccc(Nc3nc(Nc4ccccc4C(N)=O)c4cc[nH]c4n3)c(OC)c2)C1 (stereo not shown) , the logged pIC50 turned out to be > 7.00

# credit: patent US7981903B2
